B1: CDC34 (parent)
chain: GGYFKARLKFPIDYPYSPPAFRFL

Variants of: B1
Assay: protein stability index of a GFP-peptide fusion (GPS, HEK-293T) (PSI 1-6); higher = more stable;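 further: lentivirally expressed fusions sorted by FACS into six bins by GFP to DsRed ratio, PSI derived from sequencing read proportions per bin multiplied by bin number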
Details: c terminus: a fixed tail appended
I'd be grateful if you could share measured protein stability index for these entries.
A bare number is all that is needed in reply.

# input So what does the record say about protein stability index for GGYLKARLKFPIDYPYSPPAFRFL ?
# output 3.57

# input So what does the record say about protein stability index for GGYFKARLKFPVDYPYSPPAFRFL ?
# output 1.8

# input So what does the record say about protein stability index for GGYFKARLIFPIDYPYSPPAFRFL ?
# output 3.15

# input So what does the record say about protein stability index for GGYFKARLKFPIDYPYSPPWFRFL ?
# output 2.98

# input So what does the record say about protein stability index for GGLFKARLKFPIDYPYSPPAFRFL ?
# output 2.32

# input So what does the record say about protein stability index for GGYFKARLKFPIDYPMSPPAFRFL ?
# output 1.99

# input So what does the record say about protein stability index for GGYFKARLKFGIDYPYSPPAFRFL ?
# output 2.07

# input So what does the record say about protein stability index for GGYFKARLWFPIDYPYSPPAFRFL ?
# output 2.66

# input So what does the record say about protein stability index for GGYFKARGKFPIDYPYSPPAFRFL ?
# output 3.75

# input So what does the record say about protein stability index for GGYCKARLKFPIDYPYSPPAFRFL ?
# output 3.82

# input So what does the record say about protein stability index for GGYFKARLKFPIDYPYFPPAFRFL ?
# output 2.93

Entry source: the supplement of paper PMC10567573
